Please go through the items and note down their Selectivity ratio.
target.under.test: Monoamine transporters; serotonin & dopamine (Rattus norvegicus) (UniProt P31652+P23977)
Sequence (P23977 whole entry, looked up): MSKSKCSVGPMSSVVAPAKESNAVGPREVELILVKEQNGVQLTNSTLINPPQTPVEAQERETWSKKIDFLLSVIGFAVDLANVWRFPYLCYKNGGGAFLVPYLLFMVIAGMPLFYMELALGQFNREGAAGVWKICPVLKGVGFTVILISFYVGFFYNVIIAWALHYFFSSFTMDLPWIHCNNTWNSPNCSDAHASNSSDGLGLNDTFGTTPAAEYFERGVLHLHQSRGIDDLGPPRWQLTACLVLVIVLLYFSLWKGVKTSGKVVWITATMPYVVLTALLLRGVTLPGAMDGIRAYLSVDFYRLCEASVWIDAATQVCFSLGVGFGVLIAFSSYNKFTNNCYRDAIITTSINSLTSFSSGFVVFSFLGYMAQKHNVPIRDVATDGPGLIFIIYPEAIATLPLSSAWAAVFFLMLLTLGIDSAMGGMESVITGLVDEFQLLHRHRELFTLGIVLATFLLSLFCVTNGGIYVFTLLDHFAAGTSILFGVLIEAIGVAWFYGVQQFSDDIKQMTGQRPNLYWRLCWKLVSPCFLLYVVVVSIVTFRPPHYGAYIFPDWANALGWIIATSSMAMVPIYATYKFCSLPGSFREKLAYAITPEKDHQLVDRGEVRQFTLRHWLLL
Sequence (P31652 whole entry, looked up): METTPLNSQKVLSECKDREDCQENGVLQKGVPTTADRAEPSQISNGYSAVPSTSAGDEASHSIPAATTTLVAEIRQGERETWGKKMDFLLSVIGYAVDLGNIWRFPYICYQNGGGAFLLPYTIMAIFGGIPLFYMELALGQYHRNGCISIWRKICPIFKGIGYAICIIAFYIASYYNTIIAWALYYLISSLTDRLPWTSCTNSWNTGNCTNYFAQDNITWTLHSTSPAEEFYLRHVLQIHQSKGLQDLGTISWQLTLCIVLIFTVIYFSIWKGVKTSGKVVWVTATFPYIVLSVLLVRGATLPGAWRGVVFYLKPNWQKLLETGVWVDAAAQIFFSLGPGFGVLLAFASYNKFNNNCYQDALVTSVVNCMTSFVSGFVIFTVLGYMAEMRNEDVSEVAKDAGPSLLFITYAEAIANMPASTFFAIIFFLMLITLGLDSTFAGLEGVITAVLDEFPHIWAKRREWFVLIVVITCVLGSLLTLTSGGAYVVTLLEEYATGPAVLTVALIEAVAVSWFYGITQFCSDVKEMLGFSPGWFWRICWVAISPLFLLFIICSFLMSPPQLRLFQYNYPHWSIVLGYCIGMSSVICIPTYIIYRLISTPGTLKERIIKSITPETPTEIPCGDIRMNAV
protocol.details: Selectivity for rat DAT over rat 5HTT
Assay type: protein assay
Answers are plain numbers.

- compound: "CC[C@H]1CCN2CCCC[C@@H]2[C@H]1c1ccc(Cl)c(Cl)c1"
  target.under.test: "Monoamine transporters; serotonin & dopamine (Rattus norvegicus) (UniProt P31652+P23977)"
  Selectivity ratio: 48

Parameter requested: Selectivity ratio. Apply to each item below.
1. O=C1CCN2CCCC[C@@H]2[C@H]1c1ccc(Cl)c(Cl)c1 (relative stereo)
2. C[C@@H]1C[C@H](c2ccccc2)[C@H]2CCCCN2C1
3. O[C@@H]1CCN2CCCC[C@@H]2[C@H]1c1ccc(Cl)c(Cl)c1
4. CO[C@H]1CCN2CCCC[C@@H]2[C@H]1c1ccccc1
5. Clc1ccc([C@H]2CCCN3CCCC[C@H]23)cc1Cl (relative stereo)

Out:
710
2
57
190
36

---

target.under.test: Norepinephrine transporter (Rattus norvegicus, UniProt Q9WTR4)
Sequence (Q9WTR4 whole entry): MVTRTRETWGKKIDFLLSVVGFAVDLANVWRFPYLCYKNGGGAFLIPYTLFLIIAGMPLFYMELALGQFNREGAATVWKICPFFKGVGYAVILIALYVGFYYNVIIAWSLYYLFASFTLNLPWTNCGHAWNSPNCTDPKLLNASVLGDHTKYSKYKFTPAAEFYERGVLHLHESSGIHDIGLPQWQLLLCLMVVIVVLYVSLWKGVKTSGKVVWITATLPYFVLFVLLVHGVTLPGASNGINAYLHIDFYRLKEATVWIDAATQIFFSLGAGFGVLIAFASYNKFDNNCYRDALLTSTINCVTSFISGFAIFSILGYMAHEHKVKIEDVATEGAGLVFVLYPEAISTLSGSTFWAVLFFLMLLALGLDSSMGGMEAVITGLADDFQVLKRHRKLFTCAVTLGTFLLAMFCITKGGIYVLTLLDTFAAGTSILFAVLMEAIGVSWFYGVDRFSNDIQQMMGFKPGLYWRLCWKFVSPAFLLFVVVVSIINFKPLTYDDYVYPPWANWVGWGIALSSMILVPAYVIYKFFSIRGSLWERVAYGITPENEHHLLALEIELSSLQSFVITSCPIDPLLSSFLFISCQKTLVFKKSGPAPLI
Define the label as Met when Ki is strictly less than 100 nM and as Not met in all remaining cases.

Sample answers from the record:
- compound: "O[C@H]1CCN2CCCC[C@@H]2[C@H]1c1ccc(Cl)c(Cl)c1"
  assigned.label: "Met"
- compound: "Clc1ccc([C@@H]2CCCN3CCCC[C@H]23)cc1Cl (relative stereo)"
  assigned.label: "Not met"
- compound: "CO[C@H]1CCN2CCCC[C@@H]2[C@H]1c1ccccc1"
  assigned.label: "Met"
- compound: "CC[C@H]1CCN2CCCC[C@@H]2[C@H]1c1ccccc1"
  assigned.label: "Met"
- compound: "O=C1CCN2CCCC[C@@H]2[C@H]1c1ccc(Cl)c(Cl)c1 (relative stereo)"
  assigned.label: "Not met"

In: For `CO[C@@H]1CCN2CCCC[C@@H]2[C@H]1c1ccccc1` , is the recorded Ki below the cut-off of 100 nM?
Out: Not met

In: For c1ccc([C@H]2CCCN3CCCC[C@H]23)cc1 (relative stereo) , is the recorded Ki below the cut-off of 100 nM?
Out: Not met

In: For `O[C@@H]1CCN2CCCC[C@@H]2[C@H]1c1ccc(Cl)c(Cl)c1` , is the recorded Ki below the cut-off of 100 nM?
Out: Not met

In: For `CC[C@@]1(O)CCN2CCCC[C@@H]2[C@H]1c1ccccc1` , is the recorded Ki below the cut-off of 100 nM?
Out: Not met

In: For `O[C@H]1CCN2CCCC[C@@H]2[C@H]1c1ccccc1` , is the recorded Ki below the cut-off of 100 nM?
Out: Not met

---

# Sodium-dependent serotonin transporter (Rattus norvegicus): Ki values follow
# Sequence (P31652 whole entry): as the sequence (P31652 whole entry, looked up) above
The answer should read as a number with its unit following.

Examples with answers:
- compound: "OC[C@H](c1ccc(Cl)c(Cl)c1)[C@H]1CCCCN1 (relative stereo)"
  Ki: "0.276 µM"
- compound: "O=C1CC[C@H](c2ccccc2)[C@H]2CCCCN12"
  Ki: "3.55 µM"
- compound: "Clc1ccc([C@H]2CCCN3CCCC[C@H]23)cc1Cl (relative stereo)"
  Ki: "0.121 µM"
- compound: "CO[C@H]1CCN2CCCC[C@@H]2[C@H]1c1ccccc1"
  Ki: "2.07 µM"
- compound: "CC[C@H]1CCN2CCCC[C@@H]2[C@H]1c1ccc(Cl)c(Cl)c1"
  Ki: "0.199 µM"

Parameter requested: Ki. Apply to each item below.
1. O[C@@H]1CCN2CCCC[C@@H]2[C@H]1c1ccc(Cl)c(Cl)c1
2. Clc1ccc([C@@H]2CCCN3CCCC[C@H]23)cc1Cl (relative stereo)
3. C[C@H]1C[C@H](c2ccccc2)[C@H]2CCCCN2C1
4. CC[C@H]1CCN2CCCC[C@@H]2[C@H]1c1ccccc1
5. c1ccc([C@H]2CCCN3CCCC[C@H]23)cc1 (relative stereo)
6. CC[C@@H]1CCN2CCCC[C@@H]2[C@H]1c1ccc(Cl)c(Cl)c1
7. O[C@H]1CCN2CCCC[C@@H]2[C@H]1c1ccc(Cl)c(Cl)c1

Out:
1: 2.05 µM; 2: 0.102 µM; 3: 0.427 µM; 4: 3.55 µM; 5: 5.14 µM; 6: 0.286 µM; 7: 0.168 µM

---

target.under.test: Monoamine transporters; Norepininephrine & dopamine (Rattus norvegicus) (UniProt P23977+Q9WTR4)
protocol.details: Selectivity for rat DAT over rat NET
Format: protein assay
endpoint.label: Selectivity ratio
Give bare numbers.

Examples with answers:
- compound: "O=C1CCN2CCCC[C@@H]2[C@H]1c1ccccc1 (relative stereo)"
  endpoint.label: "Selectivity ratio"
  val: 4.4
- compound: "CO[C@H]1CCN2CCCC[C@@H]2[C@H]1c1ccccc1"
  endpoint.label: "Selectivity ratio"
  val: 5.9
- compound: "c1ccc(C2CCCNC2)cc1 (configuration not stated)"
  endpoint.label: "Selectivity ratio"
  val: 0.12
- compound: "O[C@H]1CCN2CCCC[C@@H]2[C@H]1c1ccc(Cl)c(Cl)c1"
  endpoint.label: "Selectivity ratio"
  val: 11

Parameter requested: Selectivity ratio. Apply to each item below.
1. CO[C@@H]1CCN2CCCC[C@@H]2[C@H]1c1ccccc1
2. O[C@H]1CCN2CCCC[C@@H]2[C@H]1c1ccccc1
3. Clc1ccc([C@H]2CCCN3CCCC[C@H]23)cc1Cl (relative stereo)
4. O=C1CCN2CCCC[C@@H]2[C@H]1c1ccc(Cl)c(Cl)c1 (relative stereo)

Out:
1: 3.6; 2: 3.3; 3: 8.4; 4: 20

Parameter requested: Selectivity ratio. Apply to each item below.
1. CC[C@H]1CCN2CCCC[C@@H]2[C@H]1c1ccc(Cl)c(Cl)c1
2. CC[C@@]1(O)CCN2CCCC[C@@H]2[C@H]1c1ccccc1
3. Clc1ccccc1[C@H]1CCCN2CCCC[C@H]12 (relative stereo)

Out:
[24, 8.69, 5.7]

Parameter requested: Selectivity ratio. Apply to each item below.
1. CC[C@@H]1CCN2CCCC[C@@H]2[C@H]1c1ccc(Cl)c(Cl)c1
2. C[C@@H]1C[C@H](c2ccccc2)[C@H]2CCCCN2C1
3. CC[C@H]1CCN2CCCC[C@@H]2[C@H]1c1ccccc1
4. O[C@@H]1CCN2CCCC[C@@H]2[C@H]1c1ccc(Cl)c(Cl)c1
5. Clc1ccc([C@@H]2CCCN3CCCC[C@H]23)cc1Cl (relative stereo)
6. C[C@H]1C[C@H](c2ccccc2)[C@H]2CCCCN2C1

Out:
[30, 0.64, 11, 10, 4.6, 3.9]

Parameter requested: Selectivity ratio. Apply to each item below.
1. CC[C@@H]1CCN2CCCC[C@@H]2[C@H]1c1ccccc1
2. c1ccc([C@H]2CCCN3CCCC[C@H]23)cc1 (relative stereo)

Out:
1: 15; 2: 1.8

---

Please go through the items and note down their inhibition.
target.under.test: Norepinephrine transporter (Rattus norvegicus) (UniProt Q9WTR4)
Sequence (Q9WTR4 as listed by the source): as the sequence (Q9WTR4 whole entry) above
protocol.details: Displacement of [3H]nisoxetine from NET in Sprague-Dawley rat cortical tissue at 5 uM
The answer should read as a number with its unit following.

- compound: "Clc1ccccc1[C@H]1CCCN2CCCC[C@H]12 (relative stereo)"
  inhibition: "58%"
- compound: "O=C1CC[C@H](c2ccccc2)[C@H]2CCCCN12"
  inhibition: "11%"
- compound: "O=C1CCN2CCCC[C@@H]2[C@H]1c1ccccc1 (relative stereo)"
  inhibition: "52%"

Parameter requested: inhibition. Apply to each item below.
1. CCN1CCCC[C@@H]1[C@H](C)c1ccccc1 (relative stereo)
2. CO[C@@H]1CCN2CCCC[C@@H]2[C@H]1c1ccccc1
3. O[C@@H]1CCN2CCCC[C@@H]2[C@H]1c1ccccc1

Out:
["8.3%", "64%", "23.7%"]

---

target.under.test: Sodium-dependent dopamine transporter (Rattus norvegicus, UniProt P23977)
Sequence (P23977 whole entry): as the sequence (P23977 whole entry, looked up) above
protocol.details: Displacement of [3H]WIN-35428 from DAT in Sprague-Dawley rat striatum
Ranges used to classify Ki: lower segment: < 30 nM; middle segment: ≥ 30 nM and < 400 nM; upper segment: ≥ 400 nM

- compound: "COC(=O)[C@H](c1ccccc1Cl)[C@H]1CCCCN1"
  target.under.test: "Sodium-dependent dopamine transporter (Rattus norvegicus, UniProt P23977)"
  assigned.label: "upper segment"
- compound: "O[C@H]1CCN2CCCC[C@@H]2[C@H]1c1ccc(Cl)c(Cl)c1"
  target.under.test: "Sodium-dependent dopamine transporter (Rattus norvegicus, UniProt P23977)"
  assigned.label: "lower segment"

In: Lab note: which band did c1ccc(CC2CCCCN2)cc1 (centres undefined) land in?
Out: upper segment

In: Lab note: which band did Clc1ccccc1[C@H]1CCCN2CCCC[C@H]12 (relative stereo) land in?
Out: upper segment

---

target.under.test: Monoamine transporters; Norepinephrine & serotonin (Rattus norvegicus) (UniProt P31652+Q9WTR4)
protocol.details: Selectivity for rat NET over rat 5HTT
Format: protein assay
Please go through the items and note down their Selectivity ratio.
Numbers only.

- compound: "C[C@H]1C[C@H](c2ccccc2)[C@H]2CCCCN2C1"
  endpoint.label: "Selectivity ratio"
  val: 0.62
- compound: "c1ccc([C@H]2CCCN3CCCC[C@H]23)cc1 (relative stereo)"
  endpoint.label: "Selectivity ratio"
  val: 37
- compound: "Clc1ccccc1[C@H]1CCCN2CCCC[C@H]12 (relative stereo)"
  endpoint.label: "Selectivity ratio"
  val: 0.67

Parameter requested: Selectivity ratio. Apply to each item below.
1. O=C1CCN2CCCC[C@@H]2[C@H]1c1ccc(Cl)c(Cl)c1 (relative stereo)
2. CC[C@@H]1CCN2CCCC[C@@H]2[C@H]1c1ccccc1
3. Clc1ccc([C@H]2CCCN3CCCC[C@H]23)cc1Cl (relative stereo)
4. C[C@@H]1C[C@H](c2ccccc2)[C@H]2CCCCN2C1

Out:
36
5.8
4.3
3.2
